- targetOrSystem: T1, hERα-LBD (ligand binding domain of estrogen receptor α) (human, UniProt P03372 297-554)
- T1 construct: Assayed with estradiol, diethylstilbestrol, genistein or tamoxifen present; the ligand is named under assay in each row
- T1 sequence (looked up): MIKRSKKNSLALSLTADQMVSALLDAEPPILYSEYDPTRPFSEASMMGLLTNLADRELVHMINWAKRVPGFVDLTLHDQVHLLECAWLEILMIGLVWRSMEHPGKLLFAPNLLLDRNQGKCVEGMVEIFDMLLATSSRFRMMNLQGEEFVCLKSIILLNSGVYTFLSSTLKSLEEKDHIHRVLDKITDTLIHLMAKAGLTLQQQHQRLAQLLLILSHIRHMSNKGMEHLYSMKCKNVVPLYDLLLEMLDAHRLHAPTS
- experimentNotes: fluorescence polarization, labelled peptide 10 nM, hERα-LBD titrated, estradiol present; 100 may stand for above the assay limits
Ends that are not written are not given here.
measuredEndpoint: Kd

In: Recall and state the measured Kd for C(5‑iodoacetamidofluorescein)KKENNALLRYLLDRDDPSD [SRC3-3 coregulator peptide] .
Out: 100 µM

Value source: patent US20040005636A1
